system: EW-16 (Ewing's Sarcoma); test: combination Emax (second highest fraction inhibited in the dose matrix, 72 h); higher = more inhibition; extreme values may be limits of the assay
OBSERVABLE: combination Emax
// keep it numeric: no unit symbol after the value

Worked examples follow.
- MOLECULE: "CC1(C)CCC(CN2CCN(c3ccc(C(=O)NS(=O)(=O)c4ccc(NCC5CCOCC5)c([N+](=O)[O-])c4)c(Oc4cnc5[nH]ccc5c4)c3)CC2)=C(c2ccc(Cl)cc2)C1 [Venetoclax] + COc1cc(Nc2ncc3c(n2)-c2ccc(Cl)cc2C(c2c(F)cccc2OC)=NC3)ccc1C(=O)O [Alisertib] (first compound max 1 µM, 7x7, partner max 10 µM)"
  combination Emax: 0.726
- MOLECULE: "COc1cc2ncnc(Nc3ccc(F)c(Cl)c3)c2cc1OCCCN1CCOCC1 [Gefitinib] + CC(C)n1c(=O)n(C)c2cnc3cc(F)c(-c4ccc(OCCCN5CCCCC5)nc4)cc3c21 [AZD1390] (first compound max 10 µM, 7x7, partner max 0.3 µM)"
  combination Emax: 0.176
- MOLECULE: "CN(CCO)CC[C@H](CSc1ccccc1)Nc1ccc(S(=O)(=O)NC(=O)c2ccc(N3CCC([C@@H](O)c4ccccc4-c4ccc(Cl)cc4)CC3)cc2)cc1S(=O)(=O)C(F)(F)F [AZD4320] + CCN(CCO)CCCOc1ccc2c(Nc3cc(CC(=O)Nc4cccc(F)c4)[nH]n3)ncnc2c1 [AZD2811] (first compound max 1 µM, 7x7, partner max 1 µM)"
  combination Emax: 0.973
- MOLECULE: "CN(CCO)CC[C@H](CSc1ccccc1)Nc1ccc(S(=O)(=O)NC(=O)c2ccc(N3CCC([C@@H](O)c4ccccc4-c4ccc(Cl)cc4)CC3)cc2)cc1S(=O)(=O)C(F)(F)F [AZD4320] + Cn1cnc2c(F)c(Nc3ccc(Br)cc3Cl)c(C(=O)NOCCO)cc21 [Selumetinib] (first compound max 1 µM, 7x7, partner max 3 µM)"
  combination Emax: 0.913
- MOLECULE: "COc1cccc(OCCCN)c1-c1cc(Nc2cnc(C#N)cn2)n[nH]1 [Prexasertib] + C=CCn1c(=O)c2cnc(Nc3ccc(N4CCN(C)CC4)cc3)nc2n1-c1cccc(C(C)(C)O)n1 [AZD1775] (first compound max 1 µM, partner max 1 µM)"
  combination Emax: 0.75

Field: next molecule
Suppose we examine the molecule CN(CCO)CC[C@H](CSc1ccccc1)Nc1ccc(S(=O)(=O)NC(=O)c2ccc(N3CCC([C@@H](O)c4ccccc4-c4ccc(Cl)cc4)CC3)cc2)cc1S(=O)(=O)C(F)(F)F [AZD4320] + C1CN(CCC1(C(=O)N[C@@H](CCO)C2=CC=C(C=C2)Cl)N)C3=NC=NC4=C3C=CN4 [Capivasertib] (first compound max 1 µM, 7x7, partner max 3 µM) ; what combination Emax value has been reported?
0.461
